Tested on: SK-OV-3 ovarian
Assay: NCI-60 one-dose screen, 48 h (100 = growth as untreated, 0 = no growth, -100 = all killed)
Conditions: 10 µM unless noted
About 83,000 compounds went through this panel and 20% of them were active in at least one assay; those are over-represented in the sample as a whole.
recorded.endpoint: growth (%)
Just the number in %, nothing appended.

The following molecules have reported results that may help.
given_smiles=C=CC(=O)N1CC=C(c2cc3c(N[C@H](C)c4ccccc4)ncnc3[nH]2)CC1 readout_unit=% numeric_value=47.4
given_smiles=O=C(CN1CCN(c2cc(=O)[nH]c3ccc(F)cc23)CC1)Nc1ccc(Cl)cc1 readout_unit=% numeric_value=65.1
given_smiles=Cc1ccc(NC(=S)NNC(=S)Nc2ccc(C)cc2)cc1 readout_unit=% numeric_value=111
given_smiles=O=C1C(c2ccccc2)=C(N2CCc3ccccc32)OC1(Cl)Cl readout_unit=% numeric_value=112
given_smiles=CNC(=O)c1cc(Oc2ccc3nc(NC(=O)c4cc(N5CCOCC5)cc(C(F)(F)F)c4)sc3c2)ccn1 readout_unit=% numeric_value=97.9
given_smiles=NC(N)=Nc1ccc(Oc2cccc(NC(N)=Nc3ccc(Cl)c(C(F)(F)F)c3)c2)cc1 readout_unit=% numeric_value=54.9

Request: Item C=CCn1c(SCC(=O)Nc2ccc(C(=O)/C=C/c3ccc(C)cc3)cc2)nnc1-c1c[nH]c2ccccc12 has what recorded growth?
Response: 105

Request: Here is the next molecule: C=C(C)[C@@H]1CC[C@]2(C(=O)NCCCCCN(CCC#N)CCC#N)CC[C@]3(C)[C@H](CC[C@@H]4[C@@]5(C)CCC(=O)C(C)(C)[C@@H]5CC[C@]43C)[C@@H]12
Response: 118

Request: Here is the next molecule: COc1cc(-c2nn(C(C)(C)C)cc2-c2ccnc(NCCCNS(=O)(=O)c3ccc(F)cc3)n2)ccc1Cl
Response: 104

* * *

Test system: OVCAR-8 ovarian
Test: NCI-60 one-dose screen, 48 h (100 = growth as untreated, 0 = no growth, -100 = all killed)
Details: 10 µM unless noted
Protocol: Growth inhibition of the OVCAR-8 human tumor cell line is measured as a screen for anti-cancer activity. Cells are grown in 96 well plates and exposed to the test compound for 48 hours. Compounds are tested at a single concentration, which is 10^-5 M for most compounds. The reported endpoint is percent growth (GI% or GIPRCNT), where numbers from 0 - 100% represent growth inhibition, and numbers from -100% - 0 represent cell death. For example, a value of 40 represents 60% growth inhibition. […]
About 83,000 compounds went through this panel and 20% of them were active in at least one assay; those are over-represented in the sample as a whole.
recorded.endpoint: growth (%)
Just the number in %, nothing appended.

The following molecules have reported results that may help.
given_smiles=O=C(Nc1cccc(Cl)c1)Nc1nc2ccc([N+](=O)[O-])cc2o1 recorded_endpoint=growth numeric_value=6.36
given_smiles=C=CCn1c(SCC(=O)Nc2ccc(C(=O)/C=C/c3cc(OC)c(OC)c(OC)c3)cc2)nnc1-c1c[nH]c2ccccc12 recorded_endpoint=growth numeric_value=37.8
given_smiles=Cc1ccc(C(=O)NN2C(=O)/C(=C/C=C/c3ccco3)SC2=S)cc1 recorded_endpoint=growth numeric_value=99.7

Request: Item O=C(CN1CCN(c2cc(=O)n(-c3ccccc3)c3ccccc23)CC1)Nc1ccc(F)cc1 has what recorded growth?
Response: 71.2

Request: Here is the next molecule: C#Cc1ccc(C(=O)NCc2ccc(/C=C/C(=O)c3nccn3C)cc2)cc1
Response: 26.9
